Catalogue of compounds with associated melting point
Give the number; °C is assumed, so skip it.

smiles-representation | observed-measurement
COC(=O)c1nc(-c2ccc(Cl)c(OC)c2F)nc2c1N(C(C)C)CCN2C(C)C | 135

Tell me melting point reported for COC(=O)c1nc(-c2ccc(Cl)c(F)c2)nc2c1n(Cc1ccccc1)c(=O)c(=O)n2Cc1ccccc1
211

Tell me melting point reported for COC(=O)c1nc(-c2ccc(Cl)c(OC)c2F)nc2c1N(Cc1ccccc1)CCN2Cc1ccccc1
146

###

System: Ipomoea hederaceae (IPOHE)
Assay: Pre-emergence biological efficacy, glasshouse, 1000 g/ha, evaluated after 13 days (100=total damage to plant; 0=no damage to plant)
Type: in vivo
Conditions: Ipomoea, 312 h, rate 1,000 g/ha, read-out: Percentage damage caused to weed species, pre-emergence, IPOHE
observation-type: pest or weed control at 1000 g/ha (%)
Give the number; % is assumed, so skip it.

Reference set (4 entries):
smiles-representation | tested-target | unit-tag | pest or weed control at 1000 g/ha
COc1c(Cl)ccc(-c2nc(C(=O)O)c3c(C)cn(Cc4ccccc4)c3n2)c1F | Ipomoea hederaceae (IPOHE) | % | 0
COC(=O)c1nc(-c2ccc(Cl)c(F)c2)nc2c1ccn2CC1CC1 | Ipomoea hederaceae (IPOHE) | % | 0
COC(=O)c1nc(-c2ccc(Cl)c(F)c2)nc2c1ccn2Cc1ccco1 | Ipomoea hederaceae (IPOHE) | % | 0
COC(=O)c1nc(-c2ccc(Cl)c(OC)c2F)nc2c1N(Cc1ccccc1)CCN2Cc1ccccc1 | Ipomoea hederaceae (IPOHE) | % | 0

Give pest or weed control at 1000 g/ha for this entry on Ipomoea hederaceae (IPOHE): COC(=O)c1nc(-c2ccc(Cl)c(OC)c2F)nc2c1c(C)cn2C(=O)OC
0

Give pest or weed control at 1000 g/ha for this entry on Ipomoea hederaceae (IPOHE): COc1c(Cl)ccc(-c2cc3[nH]cc(C)c3c(C(=O)O)n2)c1F
70

Give pest or weed control at 1000 g/ha for this entry on Ipomoea hederaceae (IPOHE): COC(=O)c1nc(-c2ccc(Cl)c(OC)c2F)nc2c1N(C)CCN2C
0

Give pest or weed control at 1000 g/ha for this entry on Ipomoea hederaceae (IPOHE): COC(=O)c1nc(-c2ccc(Cl)c(F)c2)nc2[nH]c(C)c(C)c12
0

Give pest or weed control at 1000 g/ha for this entry on Ipomoea hederaceae (IPOHE): Cc1c[nH]c2nc(C3CC3)nc(C(=O)O)c12
100

Give pest or weed control at 1000 g/ha for this entry on Ipomoea hederaceae (IPOHE): COC(=O)c1nc(-c2ccc(Cl)c(OC)c2F)cc2[nH]cc(C)c12
60

###

System: Ipomoea hederaceae (IPOHE)
Test: Pre-emergence biological efficacy, glasshouse, 1000 g/ha, evaluated after 13 days (100=total damage to plant; 0=no damage to plant)
Format: in vivo
Settings: Ipomoea, 312 h, rate 1,000 g/ha, read-out: Percentage damage caused to weed species, pre-emergence, IPOHE
Catalogue of compounds with associated pest or weed control at 1000 g/ha
Give the number; % is assumed, so skip it.

Reference set (4 entries):
smiles-representation | unit-tag | observed-measurement
COC(=O)c1nc(C2CC2)nc2[nH]cc(C)c12 | % | 60
COc1c(Cl)ccc(-c2nc(C(=O)O)c3cc(C)n(CC4CC4)c3n2)c1F | % | 0
COC(=O)c1nc(Cl)nc2[nH]c(C)cc12 | % | 0
COC(=O)c1nc(-c2ccc(Cl)c(OC)c2F)nc2c1NCCN2Cc1ccccc1 | % | 40

Tell me pest or weed control at 1000 g/ha reported for COC(=O)c1nc(-c2ccc(Cl)c(F)c2)nc2[nH]c(C)cc12
0

Tell me pest or weed control at 1000 g/ha reported for COC(=O)c1nc(-c2ccc(Cl)c(OC)c2F)nc2c1cc(C)n2Cc1ccccc1[N+](=O)[O-]
0

Tell me pest or weed control at 1000 g/ha reported for COC(=O)c1nc(-c2ccc(Cl)c(OC)c2F)cc2c1c(C)cn2C(C)=O
20

Tell me pest or weed control at 1000 g/ha reported for Cc1cc2c(C(=O)O)nc(-c3ccc(Cl)c(F)c3)nc2n1CC1CC1
30

Tell me pest or weed control at 1000 g/ha reported for COC(=O)c1nc(-c2ccc(Cl)c(OC)c2F)nc2[nH]c(C)c(C)c12
0
